Please respond with reported IC50 for every item in the list.
Biological target: wild-type ALK2 (aa172-499) (Homo sapiens (Human))
Sequence (Q04771 172-499): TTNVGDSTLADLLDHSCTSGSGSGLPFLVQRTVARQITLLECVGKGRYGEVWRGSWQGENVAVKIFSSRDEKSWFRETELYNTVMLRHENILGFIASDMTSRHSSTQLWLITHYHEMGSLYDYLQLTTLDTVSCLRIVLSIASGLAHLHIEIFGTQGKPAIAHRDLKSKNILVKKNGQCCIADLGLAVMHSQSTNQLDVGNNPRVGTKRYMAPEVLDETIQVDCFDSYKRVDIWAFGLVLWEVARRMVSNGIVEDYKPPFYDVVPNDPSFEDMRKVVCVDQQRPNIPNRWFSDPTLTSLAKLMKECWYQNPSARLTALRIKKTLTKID
Assay: Caliper biochemical peptide phosphorylation assay, ALK2
Conditions: 15 μm ATP, 60 min at 30° C.; read-out: ALK2 EPK (IC50)

// Input: CC(F)(F)CN1C[C@@H]2C[C@]2(c2ccc(-c3cnc(N)c(C(=O)N[C@H]4CC[C@H](O)CC4)c3)cc2)C1 . Output its IC50 only.
79 nM

// Input: C[C@@H]1CCCN1Cc1ccc(-c2cnc(N)c(C(=O)N[C@H]3CC[C@](C)(O)CC3)c2)cc1F . Output its IC50 only.
25 nM

// Input: C[C@H](c1ccc(-c2cnc(N)c(C(=O)N[C@H]3CC[C@H](O)CC3)c2)c(Cl)c1)N1CC2(COC2)C1 . Output its IC50 only.
30 nM

// Input: Nc1ncc(-c2ccc([C@@]34C[C@@H]3CN(C3CCC(F)(F)CC3)C4)cc2)cc1C(=O)NC12CCC(O)(CC1)CC2 . Output its IC50 only.
87 nM

// Input: Nc1ncc(-c2ccc(C(=O)N3CCOCC3)cc2)cc1C(=O)NC1CCCCC1 . Output its IC50 only.
52 nM

// Input: Nc1ncc(-c2ccc([C@@]34C[C@@H]3CN(CCC(F)(F)F)C4)cc2)cc1C(=O)N[C@H]1CC[C@H](O)CC1 . Output its IC50 only.
25 nM

// Input: CC(C)N1CCN(c2ccc(-c3cnc(N)c(C(=O)N[C@H]4CC[C@H](O)CC4)c3)c(F)c2)CC1 . Output its IC50 only.
12 nM

// Input: Nc1ncc(-c2ccc([C@@]34C[C@@H]3CN(C3CCOCC3)C4)cc2)cc1C(=O)NC12CC(CO)(C1)C2 . Output its IC50 only.
22 nM

// Input: Nc1ncc(-c2ccc(N3CCNCC3)cc2F)cc1C(=O)N[C@H]1CC[C@H](O)CC1 . Output its IC50 only.
20 nM

// Input: Nc1ncc(-c2ccc([C@@]34C[C@@H]3CN(C3CCOCC3)C4)cc2)cc1C(=O)N[C@@H]1CC[C@@H](O)[C@@H](F)C1 . Output its IC50 only.
19 nM

// Input: Nc1ncc(-c2ccc([C@]34C[C@H]3CN(C3CCOCC3)C4)cc2)cc1C(=O)NC12CCC(O)(CC1)CC2 . Output its IC50 only.
29 nM

// Input: CC(C)N1C[C@H]2C[C@@]2(c2ccc(-c3cnc(N)c(C(=O)N[C@H]4CC[C@](C)(O)CC4)c3)cc2)C1 . Output its IC50 only.
16 nM

// Input: C[C@@H]1CCCN1Cc1ccc(-c2cnc(N)c(C(=O)N[C@H]3CC[C@](C)(O)CC3)c2)c(F)c1 . Output its IC50 only.
30 nM

// Input: C[C@H](c1ccc(-c2cnc(N)c(C(=O)N[C@H]3CC[C@](C)(O)CC3)c2)cc1)N1CC2(COC2)C1 . Output its IC50 only.
33 nM

// Input: Nc1ncc(-c2ccc([C@]34C[C@H]3CN(C(CF)CF)C4)cc2)cc1C(=O)N[C@H]1CC[C@H](O)CC1 . Output its IC50 only.
56 nM

// Input: Nc1ncc(-c2ccc([C@@]34C[C@@H]3CN(CCN3CCOCC3)C4)cc2)cc1C(=O)NC12CCC(O)(CC1)CC2 . Output its IC50 only.
20 nM

// Input: Nc1ncc(-c2ccc([C@]34C[C@H]3CN(CCN3CCOCC3)C4)cc2)cc1C(=O)N[C@H]1CC[C@H](O)CC1 . Output its IC50 only.
13 nM

// Input: N#CCCN1C[C@@H]2C[C@]2(c2ccc(-c3cnc(N)c(C(=O)N[C@H]4CC[C@H](O)CC4)c3)cc2)C1 . Output its IC50 only.
31 nM

// Input: Nc1ncc(-c2cccc(C(=O)N3CCN(CCO)CC3)c2)cc1C(=O)NC1CCCCC1 . Output its IC50 only.
810 nM

// Input: C[C@H](c1ccc(-c2cnc(N)c(C(=O)NC34CC5CC(CC(O)(C5)C3)C4)c2)cc1)N1CC2(COC2)C1 . Output its IC50 only.
49 nM

// Input: C[C@@H]1CCCN1Cc1ccc(-c2cnc(N)c(C(=O)N[C@H]3CC[C@](C)(O)CC3)c2)cc1Cl . Output its IC50 only.
170 nM

// Input: CS(=O)(=O)N1CCC(N2C[C@H]3C[C@@]3(c3ccc(-c4cnc(N)c(C(=O)N[C@H]5CC[C@H](O)CC5)c4)cc3)C2)CC1 . Output its IC50 only.
9 nM

// Input: Nc1ncc(-c2ccc([C@]34C[C@H]3CN(C3CCC(F)(F)CC3)C4)cc2)cc1C(=O)NC12CCC(O)(CC1)CC2 . Output its IC50 only.
21 nM

// Input: Nc1ncc(-c2ccc([C@@]34C[C@@H]3CN(CC3COC3)C4)cc2)cc1C(=O)N[C@H]1CC[C@H](O)CC1 . Output its IC50 only.
68 nM

// Input: C#CCN1C[C@H]2C[C@@]2(c2ccc(-c3cnc(N)c(C(=O)N[C@H]4CC[C@H](O)CC4)c3)cc2)C1 . Output its IC50 only.
33 nM

// Input: CC(C)N1C[C@H]2C[C@@]2(c2ccc(-c3cnc(N)c(C(=O)N[C@H]4CC[C@H](O)CC4)c3)cc2)C1 . Output its IC50 only.
11 nM

// Input: Nc1ncc(-c2ccc([C@]34C[C@H]3CN(C3COC3)C4)cc2)cc1C(=O)NC12CCC(O)(CC1)CC2 . Output its IC50 only.
57 nM
